Where these numbers come from: patent EP1903056A2

# experimental.target: HLA-A*0206 (human)
# method.summary: competitive binding assay, purified HLA
# cond: remark: other sources report otherwise
readout.label: pIC50
Please report pIC50 as the negative decimal logarithm of the molar concentration, giving only the number.

Item under review: YLSGANLNV [CEA.605V9] . Reported pIC50? 7.10
